experiment: Stability in human fecal homogenate; type: in vitro ADME; details: 20% fecal homogenate (supernatant), pH 6.8, 20% human fecal homogenate, anaerobic, 37° C., read-out: t½: Human Feces anaerobic (converted)
This section presents compounds with their documented half-life at 20 μM values.
testReadout: half-life at 20 μM

| smilesEntry | value |
| --- | --- |
| CC(=O)NCCCC[C@@H]1NC(=O)[C@H](Cc2c[nH]c3c(C)cccc23)NC(=O)[C@H]([C@@H](C)O)NC(=O)[C@H](CC(N)=O)NC(=O)[C@@H](NC(C)=O)C(C)(C)SSC(C)(C)[C@@H](C(=O)N[C@@H](Cc2ccc(OCCN)cc2)C(=O)N[C@@H](Cc2ccc3ccccc3c2)C(=O)N[C@@](C)(CCCCN)C(=O)N[C@@H](CCCCNC(C)=O)C(=O)N[C@@H](CO)C(=O)N[C@H](CCCCN)C(N)=O)NC1=O | > 24 h |
| COc1cccc2c(C[C@@H]3NC(=O)[C@H]([C@@H](C)O)NC(=O)[C@H](CC(N)=O)NC(=O)[C@@H](NC(C)=O)C(C)(C)SSC(C)(C)[C@@H](C(=O)N[C@@H](Cc4ccc(OCCN)cc4)C(=O)N[C@@H](Cc4ccc5ccccc5c4)C(=O)N[C@@](C)(CCCCN)C(=O)N[C@@H](CCCCNC(C)=O)C(=O)N[C@@H](CC(N)=O)C(=O)N[C@H](CCCCN)C(N)=O)NC(=O)[C@H](CCCCNC(C)=O)NC3=O)c[nH]c12 | > 24 h |
